Where do these numbers come from? They come from paper PMC10683028.

Could you please report measured Papp for the items listed next?
- procedure_text: in vitro
- assay_setup: PAMPA, pH 7.4
Your answer is read as ×10⁻⁶ cm/s, so omit the unit and give the number.

Look at this molecule and give its reported Papp. `O=C(NCCc1ccc(C(=O)N2CCC2)cc1)c1nc(-c2ccc3nc[nH]c3c2)no1`
0.7

What measured Papp goes with `COc1ccc(-c2noc(C(=O)NCCc3ccc(C(=O)N4CCC4)nc3)n2)cc1OC` ?
5.4

Param item = `CNC(=O)c1ccc(CCNC(=O)c2nc(-c3ccc(OC)c(OC)c3)no2)cc1` ; retrieve measured Papp.
4.8

Could you tell me which Papp is on file for `COc1ccc(-c2noc(C(=O)NCCc3ccc(C(=O)N4CC(F)C4)cc3)n2)cc1OC` ?
8.5

What does the record list as Papp for `COc1ccc(-c2noc(C(=O)NCCc3ccc(C(=O)N4CC(OC)C4)cc3)n2)cc1OC1CC1` ?
4.6

Fill blank: measured Papp of the molecule `COc1ccc(-c2noc(C(=O)NC[C@H](C)c3ccccc3)n2)cc1OC` is ____.
5.5

Entry `COc1ccc(-c2noc(C(=O)NCCc3ccc(C(=O)O)cc3)n2)cc1OC` has what Papp?
0.6

May I ask what Papp has been recorded for COc1ccc(-c2noc(C(=O)NC(C#N)Cc3ccc(C(=O)N4CC5(COC5)C4)cc3)n2)cc1OC (stereo not shown) ?
0.6

Need Papp, item `O=C(NCCc1ccc(C(=O)N2CCC2)cc1)c1nc(-c2ccc3cn[nH]c3c2)no1`
5.5

I would be grateful if you could share the reported Papp for COc1ccc(-c2noc(C(=O)NC(C#N)Cc3ccc(C(=O)N4CC(OC)C4)cc3)n2)cc1OC (stereo not shown) .
1.5

May I ask what Papp has been recorded for COc1ccc(-c2noc(C(=O)NC(C#N)Cc3ccc(C(=O)N4CCC4)cc3)n2)cc1OC (stereo not shown) ?
2.8

Fill in the blank: the reported Papp of `O=C(NCCc1ccc(C(=O)N2CCC2)cc1)c1nc(-c2ccc3cc[nH]c3c2)no1` is ____.
4.4

# input molecule: `O=C(NCCc1ccc(C(=O)N2CCC2)cc1)c1nc(-c2ccc3ccoc3c2)no1` ; wanted: its Papp
7

Need Papp, item `COc1cccc(-c2noc(C(=O)NCCc3ccc(C(=O)N4CCC4)cc3)n2)c1`
10.1

Endpoint output: Papp of `COc1ccc(-c2noc(C(=O)NCCc3ccc(C(=O)N4CC5(COC5)C4)cc3)n2)cc1OC` . Value?
2.6

May I ask what Papp has been recorded for `COc1ccc(-c2nnc(C(=O)NCCc3ccc(C(=O)N4CC(OC)C4)cc3)o2)cc1OC` ?
0.8

---

- procedure_text: physchem
- assay_setup: aqueous medium at pH 7.4, pH 7.4
So basically: solubility at 10 µM or higher? That is rule met. Lower than 10 µM? That is rule not met.

Check if solubility >= 10 µM (inclusive). Item: COc1ccc(-c2nnc(C(=O)NCCc3ccc(C(=O)N4CC(OC)C4)cc3)o2)cc1OC [compound 104]
rule met

Tell me whether solubility is at least 10 µM here: COc1ccc(-c2noc(C(=O)NCCc3ccccc3)n2)cc1OC [compound 106]
rule met

hey, is solubility for this one >= 10 µM? COc1ccc(-c2noc(C(=O)NCCc3ccc(C(=O)N4CC(OC)C4)cc3)n2)cc1OCC1CC1 [compound 77]
rule not met

Does solubility meet or surpass 10 µM for COc1ccc(-c2noc(C(=O)NC(C#N)Cc3ccc(C(=O)N4CC(OC)C4)cc3)n2)cc1OCC1(O)CC1 (stereo not drawn) [compound 45] ?
rule met

Evaluate COc1ccc(-c2noc(C(=O)NC(C#N)Cc3ccc(C(=O)N4CC(OC)C4)cc3)n2)cc1OC (stereo not drawn) [compound 34] : solubility at minimum 10 µM?
rule met

API: above_or_equal(metric=solubility, cutoff=10 µM) for item COc1ccc(-c2noc(C(=O)NCCc3ccc(C(=O)N4CC5(COC5)C4)cc3)n2)cc1OC [compound 18]
rule met

---

- assay_setup: pH 7.4
Consider the following compounds; for each one, report its CHI-logDpH7.4.
Lab note: write the figure by itself, no unit.

Record request: CHI-logDpH7.4 value, item COc1ccc(-c2noc(C(=O)NC(C#N)Cc3ccccc3)n2)cc1OC (centres unmarked)
3.1

GET /values?readout=CHI-logDpH7.4&item= COc1ccc(-c2noc(C(=O)NC(C#N)Cc3ccc(C(=O)N4CC5(COC5)C4)cc3)n2)cc1OC (centres unmarked)
2.1

Given the compound `COc1ccc(-c2noc(C(=O)NCCc3ccc(C(=O)N4CC5(COC5)C4)cc3)n2)cc1OC` , what is its reported CHI-logDpH7.4?
1.8

Value lookup for CHI-logDpH7.4; key = `COc1ccc(-c2noc(C(=O)NCCc3ccc(C(=O)N4CC(OC)C4)cc3)n2)cc1OC`
2.1

Name the recorded CHI-logDpH7.4 for COc1ccc(-c2noc(C(=O)NC(C#N)Cc3ccc(C(=O)N4CCC4)cc3)n2)cc1OC (centres unmarked) .
2.1

Fill in the blank: the reported CHI-logDpH7.4 of `COc1ccc(-c2noc(C(=O)NCCc3ccc(C(=O)N4CC(F)(F)C4)cc3)n2)cc1OC` is ____.
2.6

I am curious: what CHI-logDpH7.4 value has been reported for `COc1ccc(-c2noc(C(=O)NCCc3ccc(C(N)=O)cc3)n2)cc1OC` ?
1.7

Consider the compound `COc1ccc(-c2noc(C(=O)NCCc3ccc(C(=O)N4CCC4)nc3)n2)cc1OC` and give its measured CHI-logDpH7.4.
1.9

Any idea what its CHI-logDpH7.4 is? The compound is `COc1ccc(-c2noc(C(=O)NCCc3ccc(C(=O)N4CCC4)cc3)n2)cc1F`
2.6

CHI-logDpH7.4 lookup needed for `O=C(NCCc1ccc(C(=O)N2CCC2)cc1)c1nc(-c2ccc3nc[nH]c3c2)no1` , thanks.
1.3

I am curious: what CHI-logDpH7.4 value has been reported for `COc1ccc(-c2nnc(C(=O)NCCc3ccc(C(=O)N4CC(OC)C4)cc3)o2)cc1OC` ?
1.7

Bench note: what CHI-logDpH7.4 did `COc1cc(-c2noc(C(=O)NCCc3ccc(C(=O)N4CCC4)cc3)n2)ccc1F` show?
2.6

Requested read-out: CHI-logDpH7.4. Entry: `COc1ccc(CCNC(=O)c2nc(-c3ccccc3)no2)cc1OC`
2.8

What does the data say about its CHI-logDpH7.4? Entry: `COc1ccc(CCN(C)C(=O)c2nc(-c3ccc(OC)c(OC)c3)no2)cc1OC`
2.6

# get_value(readout='CHI-logDpH7.4', item= `COc1ccc(-c2noc(C(=O)NCCN3CCOCC3)n2)cc1OC` )
1.4

What CHI-logDpH7.4 value was documented for this compound, `COc1cccc(-c2noc(C(=O)NCCc3ccc(C(=O)N4CCC4)cc3)n2)c1` ?
2.4

Item `COc1ccc(-c2noc(C(=O)NCCc3ccc(C(=O)N4CC(OC)C4)cc3)n2)cc1OCC1CC1` has what recorded CHI-logDpH7.4?
2.9

What measured CHI-logDpH7.4 goes with `O=C(NCCc1ccc(C(=O)N2CCC2)cc1)c1nc(-c2ccc3cc[nH]c3c2)no1` ?
2.3

Fill blank: measured CHI-logDpH7.4 of the compound `COc1ccc(-c2noc(C(=O)NCCc3ccc(C(=O)N4CC(OC)C4)cc3)n2)cc1OC1CCC1` is ____.
2.9

What does the data say about its CHI-logDpH7.4? Entry: COc1ccc(-c2noc(C(=O)NC(C#N)Cc3ccc(C(=O)N4CC(OC)C4)cc3)n2)cc1OC (centres unmarked)
2.2

Would you kindly share the measured CHI-logDpH7.4 for `COc1ccc(-c2nc(C(=O)NCCc3ccccc3)no2)cc1OC` ?
2.9

Quick one: CHI-logDpH7.4 for `COc1cccc(CCNC(=O)c2nc(-c3ccc(OC)c(OC)c3)no2)c1` ?
2.9

I would be grateful if you could share the reported CHI-logDpH7.4 for `COc1ccc(-c2noc(C(=O)NCCc3ccc(C(=O)N4CC(F)C4)cc3)n2)cc1OC` .
2.2

Return reported CHI-logDpH7.4; argument: `COc1ccc(-c2noc(C(=O)NC[C@H](C)c3ccccc3)n2)cc1OC`
3.3

Given the entry `O=C(NCCc1ccc(C(=O)N2CCC2)cc1)c1nc(-c2ccc3cn[nH]c3c2)no1` , report its measured CHI-logDpH7.4.
1.6

I am curious: what CHI-logDpH7.4 value has been reported for `COc1ccc(CCNC(=O)c2nc(-c3ccc(OC)c(OC)c3)no2)cc1OC` ?
2.5

Report CHI-logDpH7.4 for `O=C(NCCc1ccccc1)c1nc(-c2ccccc2)no1` please.
3.2

Given `CNC(=O)c1ccc(CCNC(=O)c2nc(-c3ccc(OC)c(OC)c3)no2)cc1` , state its recorded CHI-logDpH7.4.
1.8

Item under review: `COc1ccc(-c2noc(C(=O)NCCc3ccc(C(=O)N4CCC4)cc3)n2)cc1OC` . Reported CHI-logDpH7.4?
2.1

Given the entry `COc1ccc(-c2n[nH]c(C(=O)NCCc3ccc(C(=O)N4CCC4)cc3)n2)cc1OC` , report its measured CHI-logDpH7.4.
1.3

For the compound shown here, `COc1ccc(-c2noc(C(=O)NCCc3ccc(C(=O)N4CC(OC)C4)cc3)n2)cc1OC1CC1` , give the reported CHI-logDpH7.4.
2.6

For `COc1ccc(-c2noc(C(=O)NCC(C)(C)c3ccccc3)n2)cc1OC` , what is its reported CHI-logDpH7.4?
3.7

Fill in the blank: the reported CHI-logDpH7.4 of `COc1ccc(-c2noc(CNCCc3ccccc3)n2)cc1OC` is ____.
2.9

Need CHI-logDpH7.4, item `O=C(NCCc1ccc(C(=O)N2CCC2)cc1)c1nc(-c2ccc3ccoc3c2)no1`
2.5

Need CHI-logDpH7.4 of `COc1ccc(-c2noc(C(=O)NCCc3cccnc3)n2)cc1OC` , thanks.
1.8
